Provenance of the data: patent EP1585727B1

tgt: human androgen receptor (Homo sapiens, UniProt P10275)
Construct: expressed in transfected cells; host or cells: Chinese hamster ovary (CHO) cells, cell line CHO-AR-pMMTV-LUC 1G12-A5-CA
Sequence (P10275 whole entry): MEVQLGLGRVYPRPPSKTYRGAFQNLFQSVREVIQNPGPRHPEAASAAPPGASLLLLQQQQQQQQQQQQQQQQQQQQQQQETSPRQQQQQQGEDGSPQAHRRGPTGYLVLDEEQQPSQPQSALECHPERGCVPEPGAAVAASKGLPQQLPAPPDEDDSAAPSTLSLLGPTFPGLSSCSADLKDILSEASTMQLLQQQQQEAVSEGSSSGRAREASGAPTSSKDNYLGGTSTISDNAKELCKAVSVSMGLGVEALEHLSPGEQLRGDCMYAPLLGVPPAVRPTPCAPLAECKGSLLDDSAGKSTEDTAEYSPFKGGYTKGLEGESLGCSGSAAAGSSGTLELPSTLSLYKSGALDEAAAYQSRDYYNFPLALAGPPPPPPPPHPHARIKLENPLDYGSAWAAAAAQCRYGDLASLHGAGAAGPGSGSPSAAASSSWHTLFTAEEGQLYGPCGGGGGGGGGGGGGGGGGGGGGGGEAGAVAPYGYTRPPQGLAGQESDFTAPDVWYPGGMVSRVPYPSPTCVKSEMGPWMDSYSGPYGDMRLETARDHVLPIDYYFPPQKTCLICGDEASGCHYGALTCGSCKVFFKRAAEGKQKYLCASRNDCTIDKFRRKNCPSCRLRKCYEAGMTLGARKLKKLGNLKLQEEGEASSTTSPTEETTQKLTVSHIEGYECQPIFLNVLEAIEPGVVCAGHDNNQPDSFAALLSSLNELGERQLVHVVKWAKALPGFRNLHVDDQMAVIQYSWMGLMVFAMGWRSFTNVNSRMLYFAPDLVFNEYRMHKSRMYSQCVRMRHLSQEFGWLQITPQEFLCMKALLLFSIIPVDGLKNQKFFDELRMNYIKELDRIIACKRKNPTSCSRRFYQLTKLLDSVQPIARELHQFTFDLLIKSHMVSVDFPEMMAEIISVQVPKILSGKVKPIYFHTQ
assayComment: Androgen receptor transactivation assay, antiandrogenic activity: inhibition of transactivation in the presence of 1 nM DHT (CHO-AR-pMMTV-LUC cells; Table 4)
Assay type: cell-based
conditionParameters: read-out: ant efficacy, in the presence of 1 nM DHT; intrinsic activity relative to reference antiandrogen Hydroxyflutamide (set at 100%)
metricName: Emax

INSERT INTO measurements (recordsmiles, tgt, observed) VALUES
  ('COc1ccc2c(Sc3ccccc3C(N)=O)cn(Cc3cc(F)cc(F)c3)c2c1', 'human androgen receptor (Homo sapiens, UniProt P10275)', '20 to 50%'),
  ('COc1ccc2c(Sc3ccccc3CO)cn(Cc3cc(F)cc(F)c3)c2c1', 'human androgen receptor (Homo sapiens, UniProt P10275)', '20 to 50%');

Emax reported for this molecule `COc1ccc2c(Sc3ccccc3[N+](=O)[O-])cn(Cc3ccccn3)c2c1` : 20 to 50%
